Listed here are variants together with their documented ddG of mutation (higher = less stable).
B1: Ribonuclease, P00648 (parent)
chain: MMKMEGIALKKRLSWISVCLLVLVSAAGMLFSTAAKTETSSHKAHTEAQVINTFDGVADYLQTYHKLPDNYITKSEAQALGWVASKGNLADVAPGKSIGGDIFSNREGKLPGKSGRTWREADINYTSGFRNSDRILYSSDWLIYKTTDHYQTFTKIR

Variants of: B1
SETUP CONDITIONS: Bacillus amyloliquefaciens; pH 6.3; 25 °C; Urea; Fluorescence; MES-NaOH 450 mM; reversible: yes; structure 1BNI; whole UniProt chain shown
Your answer should be a plain number; it is taken to be in kcal/mol.

T63S ... 1.36
I123A ... 1.66

In: Fill blank: measured ddG of mutation (higher = less stable) of the variant I102V is ____.
Out: 0.63

In: Fill blank: measured ddG of mutation (higher = less stable) of the variant Y60A is ____.
Out: 3

In: Fill blank: measured ddG of mutation (higher = less stable) of the variant T73G is ____.
Out: 1.01

In: Fill blank: measured ddG of mutation (higher = less stable) of the variant K74G is ____.
Out: 0.38

In: Fill blank: measured ddG of mutation (higher = less stable) of the variant V57T is ____.
Out: 1.99

In: Fill blank: measured ddG of mutation (higher = less stable) of the variant S138A is ____.
Out: 2.41

In: Fill blank: measured ddG of mutation (higher = less stable) of the variant I98A is ____.
Out: 4.72

In: Fill blank: measured ddG of mutation (higher = less stable) of the variant N52A is ____.
Out: 1.59
